# TESTED SYSTEM: Proto-oncogene tyrosine-protein kinase receptor Ret (Homo sapiens, UniProt P07949, G691S)
# Sequence (P07949 29-1114 G691S limits assumed): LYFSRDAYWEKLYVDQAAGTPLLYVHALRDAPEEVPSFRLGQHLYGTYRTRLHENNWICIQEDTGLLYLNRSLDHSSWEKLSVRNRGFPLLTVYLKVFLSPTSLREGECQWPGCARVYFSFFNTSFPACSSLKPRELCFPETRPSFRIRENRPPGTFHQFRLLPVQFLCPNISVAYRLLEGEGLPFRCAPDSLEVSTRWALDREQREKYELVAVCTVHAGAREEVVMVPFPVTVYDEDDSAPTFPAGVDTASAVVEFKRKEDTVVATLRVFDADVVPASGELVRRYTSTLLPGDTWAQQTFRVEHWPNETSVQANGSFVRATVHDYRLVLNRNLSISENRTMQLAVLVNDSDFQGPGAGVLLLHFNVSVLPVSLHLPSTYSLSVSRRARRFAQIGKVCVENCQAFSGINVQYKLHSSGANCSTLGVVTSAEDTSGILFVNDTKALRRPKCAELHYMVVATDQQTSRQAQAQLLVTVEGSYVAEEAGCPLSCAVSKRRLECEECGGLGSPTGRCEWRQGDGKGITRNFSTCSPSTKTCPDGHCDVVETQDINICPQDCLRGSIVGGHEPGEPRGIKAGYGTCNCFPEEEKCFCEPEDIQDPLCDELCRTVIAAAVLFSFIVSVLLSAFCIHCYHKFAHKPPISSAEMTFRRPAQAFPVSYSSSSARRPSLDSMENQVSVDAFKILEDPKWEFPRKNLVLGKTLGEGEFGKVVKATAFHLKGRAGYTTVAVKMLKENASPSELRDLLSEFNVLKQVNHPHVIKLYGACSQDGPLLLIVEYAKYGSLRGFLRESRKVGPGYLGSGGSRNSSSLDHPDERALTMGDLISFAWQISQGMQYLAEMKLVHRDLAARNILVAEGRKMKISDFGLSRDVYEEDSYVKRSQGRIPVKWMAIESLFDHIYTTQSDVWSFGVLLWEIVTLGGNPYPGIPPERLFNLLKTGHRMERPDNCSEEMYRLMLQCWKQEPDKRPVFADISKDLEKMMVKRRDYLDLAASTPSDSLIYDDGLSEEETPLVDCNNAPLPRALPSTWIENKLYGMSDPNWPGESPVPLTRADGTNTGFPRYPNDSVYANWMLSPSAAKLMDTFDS
# TEST DETAILS: Inhibition of human RET G691S mutant by biochemical kinase binding assay
REPORTED ENDPOINT: IC50 (nM)
// return numeric value only (unit: nM, not printed)

Please report the recorded IC50 for CC(C)(C)c1cc(NC(=O)Nc2ccc(C#Cc3ccc(OCCCN4CCOCC4)cc3)cc2)no1 . 439

====

# TEST DETAILS: AUC (0 to t) in NOD/SCID mouse plasma xenografted with human MV4-11 cells at […], po measured up to 24 hrs by LC-MS/MS analysis
# Type: ADME, organism-based
# CONDITION INFO: dose 1.5 mg/kg
REPORTED ENDPOINT: AUC(0-t) at 24 h (ng·h/mL)
Give the value, in units of ng·h/mL, as a plain number.

Any idea what its AUC(0-t) at 24 h is? The compound is CC(C)(C)c1cc(NC(=O)Nc2ccc(C#Cc3ccc(OCCCN4CCOCC4)cc3)cc2)no1 208
